Experiment: Oral bioavailability in Sprague-Dawley rat at 5 mg/kg formulated with 5%MC, 95% saline
Format: ADME, organism-based
Conditions: in vivo
reported_metric: bioavailability (%)
A number alone suffices; assume %.

input: bioavailability lookup needed for `COC(=O)N[C@H](C(=O)N1CCC[C@H]1c1ncc(-c2ccc3c(c2)Oc2ccc(-c4cnc([C@@H]5CCCN5C(=O)[C@@H](NC(=O)OC)C(C)C)[nH]4)cc2C3(C)C)[nH]1)C(C)C` , thanks.
output: 88.9

---

clearance values by entry
Assay: Clearance in Sprague-Dawley rat at 1 mg/kg, iv
Type: ADME, organism-based
Set-up: dose 1 mg/kg, route intravenous
Conditions: Sprague-Dawley, in vivo
A number alone suffices; assume mL/min/kg.

Here is how some molecules turned out for clearance.
{"columns": ["compound_structure_string", "unit_annotation", "clearance"],
 "data": [
  ["COC(=O)N[C@H](C(=O)N1CCC[C@H]1c1ncc(-c2ccc3c(c2)Cc2ccc(-c4cnc([C@@H]5CCCN5C(=O)[C@@H](NC(=O)OC)C(C)C)[nH]4)cc2O3)[nH]1)C(C)C", "mL/min/kg", 15.8],
  ["COC(=O)N[C@H](C(=O)N1CCC[C@H]1c1ncc(-c2ccc3c(c2)Oc2ccc(-c4cnc([C@@H]5CCCN5C(=O)[C@@H](NC(=O)OC)C(C)C)[nH]4)cc2C3(C)C)[nH]1)C(C)C", "mL/min/kg", 17.8]
]}

// next item, clearance requested
input: clearance lookup needed for `COC(=O)N[C@H](C(=O)N1CCC[C@H]1c1ncc(-c2ccc3c(c2)Oc2ccc(-c4cnc([C@@H]5CCCN5C(=O)[C@@H](NC(=O)OC)C(C)C)[nH]4)cc2O3)[nH]1)C(C)C` , thanks.
output: 11.2

---

Test: AUC(last) in cynomolgus monkey at 75 mg/kg, po
Assay type: ADME, organism-based, Macaca fascicularis
Design: time 0 - last, dose 75 mg/kg, route oral
Details: plasma
reported_metric: AUC(0-t) (ng·h/mL)
A number alone suffices; assume ng·h/mL.

input: AUC(0-t) lookup needed for `COC(=O)N[C@H](C(=O)N1CCC[C@H]1c1ncc(-c2ccc3c(c2)Oc2ccc(-c4cnc([C@@H]5CCCN5C(=O)[C@@H](NC(=O)OC)C(C)C)[nH]4)cc2C3(C)C)[nH]1)C(C)C` , thanks.
output: 17800

---

Assay: Cmax in cynomolgus monkey at 250 mg/kg, po
Assay type: ADME, organism-based, Macaca fascicularis
Set-up: dose 250 mg/kg, route oral
Conditions: in vivo
reported_metric: Cmax (ng/mL)
A number alone suffices; assume ng/mL.

input: Cmax lookup needed for `COC(=O)N[C@H](C(=O)N1CCC[C@H]1c1ncc(-c2ccc3c(c2)Oc2ccc(-c4cnc([C@@H]5CCCN5C(=O)[C@@H](NC(=O)OC)C(C)C)[nH]4)cc2C3(C)C)[nH]1)C(C)C` , thanks.
output: 8100

---

Experiment: Tmax in beagle dog at 75 mg/kg, po
Type: ADME, organism-based, Canis lupus familiaris
Set-up: dose 75 mg/kg, route oral
Settings: in vivo
reported_metric: Tmax (h)
A number alone suffices; assume h.

input: Tmax lookup needed for `COC(=O)N[C@H](C(=O)N1CCC[C@H]1c1ncc(-c2ccc3c(c2)Oc2ccc(-c4cnc([C@@H]5CCCN5C(=O)[C@@H](NC(=O)OC)C(C)C)[nH]4)cc2C3(C)C)[nH]1)C(C)C` , thanks.
output: 4
